System: MS2 coat protein
Experiment: apparent KD of MS2 coat protein; designed switch direction (-1 OFF switch, 1 ON switch): -1; higher = weaker reporter binding
Conditions: input ligand: FMN 200 uM
parameter: apparent KD of MS2 coat protein (µM)

INSERT INTO assay_data (monomer_sequence, measurement_target, readout_number) VALUES
  ('AAGGGUACUUUCAGAACGACAUGAGGAUCACCCAUGUAGACUGAGGAUAUCUGCUACUAAGGACGGGAGAAGGCAGUGUAAUGU [Ex NG3 #74] (Eterna round: R96, puzzle: Exclusion NG 3)', 'MS2 coat protein', 0.0106),
  ('AGGAUCCUAGGAUAUGCUGGGUAUCGCUGUCGGAGGGACAGACAUGAGGAUCACCCAUGUAGAAGGAGGCGCUC [Eternabot (L1) Solution 5] (Eterna round: R97, puzzle: Exclusion 2)', 'MS2 coat protein', 3.68),
  ('CUUGUUUAUGUAGGAUAUACAUGAGGAUCACCCAUAGAAGGACAUGAGGAUCACCCAUGUAUUGCGGUCUGCGUUCAGAUCGCA [salish99_ExNG1_r04_101] (Eterna round: R96, puzzle: Exclusion NG 1)', 'MS2 coat protein', 0.337);

====

System: K4 kissing-loop RNA reporter;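 note: bound reporter read as fluorescence of individual clusters on recovered sequencing chips by microscopy, with normalized cluster intensities fitted with a binding model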
Experiment: apparent KD of K4 kissing-loop reporter; higher = weaker reporter binding
Details: Eterna round: R107; input ligand: tryptophan 2.4 mM
parameter: apparent KD of K4 kissing-loop reporter (nM)

INSERT INTO assay_data (monomer_sequence, readout_number) VALUES
  ('UCUGGAGCAUAUGAUACCAGCAGUGAGAGAGAGGAAGUAUAGUGAUGUUAUAUGAGAGAAUGCCCUUGGCAGCGUGUGUAGUGGG [SSTheophylB.M]', 107),
  ('AGACUACUGACAGGAUAUGGCAUCCUGGUCGUAUACCGAAAGGUAUACGAUUUUCUUCUAGUGAUGUUAGAAGGGUCGGUAGUCA [Omei KL FMN B Exc B v15]', 92.7),
  ('UAAGAGGACCACUACAAGAGUCCUCGAAUACGAGGACCGGUACGGCCGCCACUCGAUAACUUGUAGUGAUGUUGCAAGUAAGAAU [BrourdMod 2 - Jieux - Same State Tryptophan A]', 46),
  ('AGACUACCACACUGUCAAUAGACAGUGAGCUAGGAUAUGCUGAUAAGCAGAAGGAGUGAUGUUCCUAGGUAGUCAAUAAAAUAAU [FmnAX 13 G29]', 493),
  ('CUAUGGAAACAUAGUAGUCGGGAAACCGAUACCAGUAUGGAAACAUACCCUUGGCAGCGGAAUGAUUAAACGGAGUGAUGUUCCG [Theophylline A K4 18]', 250),
  ('GGAUAGGAUAGAGGAUAUGGUAGUGAUGUUACCAAACUGGUUAAACAUGUCAGAAAACUGGCAUGACCAGAAGGCUGUCCUAUCG [FmnBX 27 U9]', 69.8),
  ('UAUUAAGUGACGGCCGCCACUAUGGUGAUUUAUUUGUUUGAGUGAUGUUUUGAUGUUUGAUUUUGUAGGACCGGGUUAUGUGUUA [ttttcmullin]', 597),
  ('UGAUACCAGACGGCCGCCACUACACCAGUCAAAGACUGGAUGUGAUGUUUGACCAGUGAUGUUGGUAGGACCGGGUCUGGUAUCU [TrypBX 5 #Palindromic #SwitchBubble #StaticStem]', 326),
  ('AUGAGGAGCAGUGAUCCUAUUCCAUGGGAAGGAGCGUAGGAUACUACAGGUAGGUCGCCCAGUGAUGUUGGGCGCGUGCUCUUGG [Zaqua]', 146),
  ('GGAUGGUAGGCGGCCGCCACUAAAUGUGAACACAUACAAGCCAGUGAUGUUGGUAUGAUGGACAAUAGGACCGGGCCUAGAUAGA [Exclusion - Tryptophan B (Freestyle 7)]', 542),
  ('UAAGAAUAAGUAGCAGUGAUGUUGCUACUACGAGGACCGGUACGGCCGCCACUCGAGCCGUACAAAGUAGCAACUAGUACGAAUA [(H1)-(H2)-(Trp1)-(Trp2)-(T)''-(H)''-(T)'''']', 365);

====

Tested on: MS2 coat protein
Assay: apparent KD of MS2 coat protein; designed switch direction (-1 OFF switch, 1 ON switch): -1; higher = weaker reporter binding
Details: input ligand: microRNA oligo, concentration not stated
Listed here are sequences together with their documented apparent KD of MS2 coat protein.
parameter: apparent KD of MS2 coat protein (nM)

INSERT INTO results (monomer_sequence, parameter, readout_number) VALUES
  ('AGAUGUAGAUACCGAUCCUACAUGAGGAUCACCCAUGUAGCUAGACGUGCACGCGUAGCUCGUCAGACUACCAGAAG [salish99_TOv1_r3_085] (Eterna round: R96, puzzle: Sensor v3, turn-off variant 1)', 'apparent KD of MS2 coat protein', 253),
  ('UCGACGUCGUCAGGAUAUAGUUUUAAUGUCAUGCUUUUGUUUUUACAUGAGGAUCACCCAUGUCGCUAGAAGGGACUAAAGAUU [JR_ExcNG2_Sub013] (Eterna round: R96, puzzle: Exclusion NG 2)', 'apparent KD of MS2 coat protein', 34.1),
  ('ACCAUAGAUGUAGGAUAUCCAUGAAGAUAACAAGGAGAAGGACAUGAGGAUCACCCAUGUAAGUAUUAUGAAUGUAGCGACAGC [Meechl Ex NG1] (Eterna round: R96, puzzle: Exclusion NG 1)', 'apparent KD of MS2 coat protein', 34),
  ('ACCAUGGUUGAAGCUAACAUGAGGAUCACCCAUGUAAGCUGCUAGGAUAUGCAGAGGCCCAGAAAGCAGAAGGAGCAGUACUGC [Diatzagequ] (Eterna round: R96, puzzle: Exclusion NG 3)', 'apparent KD of MS2 coat protein', 10.6),
  ('AAUAAUCGGGCCUUCCUAUUACAUGAGGAUCACCCAUGUCUCGAGGAUAUACCGACGCACGGUCCGUAGAAGGCGAGACCACAC [Esusbied] (Eterna round: R96, puzzle: Exclusion NG 3)', 'apparent KD of MS2 coat protein', 14.5),
  ('GUGCAAUGAGGAUAUACGUUGGUGAACAUCUGUGUGCUCCUACAUGAGGAUCACCCAUGUAGAAGGCAUGUCAC [LRO-Excl2-18] (Eterna round: R96, puzzle: Exclusion 2)', 'apparent KD of MS2 coat protein', 10.8),
  ('GUCCUCAUGACAUGAGGAUCACCCAUGUAUUAUUUGUUAACUGAGGAUAUACUCUUAUUUUUUAUGUAGAAGGCAGAUUUGUUC [JR_ExcNG3_Sub021] (Eterna round: R96, puzzle: Exclusion NG 3)', 'apparent KD of MS2 coat protein', 27.7),
  ('AAAACGGUUCUCGUGAGGUACAUGAGGAUCACCCAUGUGAGUCAGGAUAUCCCGUCCAAGUGCGAGGAGAAGGGACGCACUUGG [Esesence] (Eterna round: R96, puzzle: Exclusion NG 3)', 'apparent KD of MS2 coat protein', 103),
  ('CAUUAUUAUCGAGGAUAUCCUAUUGAAAUUCUGGGAGAAGGCGGACUCAACAUGAGGAUCACCCAUGUGAGACGGGUGCUAGGG [Ex NG1 #26] (Eterna round: R96, puzzle: Exclusion NG 1)', 'apparent KD of MS2 coat protein', 19.6);

====

Test system: MS2 coat protein
Experiment: apparent KD of MS2 coat protein; higher = weaker reporter binding
Conditions: Eterna round: R107; input ligand: theophylline 20 uM
parameter: apparent KD of MS2 coat protein (nM)

INSERT INTO measurements (monomer_sequence, measurement_target, parameter, readout_number) VALUES
  ('CGAUAUAAGACGGCCGCCACUAUUAAGUAUCAAAAUAAACAUGAGGAUCACCCAUGUACAUGGGAUAGGACCGGGUCCAAUAACG [A2]', 'MS2 coat protein', 'apparent KD of MS2 coat protein', 123),
  ('AUUCAUGGAAACAUGACAUACAUAACCGGUCGAGGACCGGUACGGCCGCCACUCGUUUGGAGGCACAUGAGGAUCACCCAUGUUA [SS Tryp A #9]', 'MS2 coat protein', 'apparent KD of MS2 coat protein', 35.9),
  ('GAACAGUCGGACAUGAGGAUCACCCAUGUGCGAGGACCGGUACGGCCGCCACUCGACAAGGGCGGUCCCGAAGCGAACAUACGCG [Cecearla]', 'MS2 coat protein', 'apparent KD of MS2 coat protein', 43.4),
  ('GGAUAGGACACGGCCGCCACUUGCUAGGAUACUAGCAACAUUUCCUCUCAUGAGGAUCACCCAUGAAGGACCGGGUGUCCUAUCG', 'MS2 coat protein', 'apparent KD of MS2 coat protein', 30.6),
  ('UACAUGAGGAUCACCCAUGUCUGAACUGAAGGAGCGCUAAACAAGGCAGGUAGGUCGCGGAAUUUUGUGUGCAUAUGCAUAUGGG [9.K]', 'MS2 coat protein', 'apparent KD of MS2 coat protein', 46.7),
  ('AAUCAUGGAAACAUGACAUGAGGAUUACUCCGAGGACCGGUACGGCCGCCACUCGCGAGGAGGCGGACAUGAGGAUCACCCAUGU [#03 Tryptophan A Same State]', 'MS2 coat protein', 'apparent KD of MS2 coat protein', 208),
  ('UAGAUAGAGGGAAGGAGCGCAGUAACAUAACAUGAGGAUCACCCAUGUAAGAAAUUAAUAAUGCAGGUAGGUCGCCCAAGAUGAU [#10 Same State - Arginine B]', 'MS2 coat protein', 'apparent KD of MS2 coat protein', 17),
  ('UCAGUGGGUUCGGCCGCCACUUGAGUGAUGGUGCCUCAAUAAGUCUACAUGAGGAUCACCCAUGUAAGGACCGGGAAUUUUAUGG [theeternabot_exclusion_MS2_Trp_B_19]', 'MS2 coat protein', 'apparent KD of MS2 coat protein', 59.1),
  ('AUACAUGAGGAUCACCCAUGUAAAGUUGAAGGAGCGACCAGAGGGUCAGGUAGGUCGCAACACAUGAGGAUCACCCAUGUAUCGA [DOUBLE!!! :-D #6]', 'MS2 coat protein', 'apparent KD of MS2 coat protein', 78.4),
  ('ACAUCUUGUACGGCCGCCACUAACAGAUUCAGCGUCGGAGCCAACUACAUGAGGAUCACCCAUGUUAGGACCGGGUACUGUCCAC [theeternabot_exclusion_MS2_Trp_B_47]', 'MS2 coat protein', 'apparent KD of MS2 coat protein', 20.7),
  ('AACAUGAGGAUCACCCAUGUCCUCGUGUUCCGAGGACCGGUACGGCCGCCACUCGGUCCUCGCGAGGAUGGUCAAAGACUAUCCA [Omei Trp A SS B v3]', 'MS2 coat protein', 'apparent KD of MS2 coat protein', 378),
  ('AAGGUGAUCCGUGAUACCAGCUCAACAUGAGGAUCACCCAUGUACGGGACGAAAGUCCCGGGCCCUUGGCAGCACGGUUGCCAAG [SSTheo B #20]', 'MS2 coat protein', 'apparent KD of MS2 coat protein', 239),
  ('UACUUGCGGUCGGCCGCCACUACGAGGCAGACCUUCACAUGAGGAUCACCCAUGUAGUCGGCUAGUAGGACCGGGAUGGCAUAAA [Solasoce]', 'MS2 coat protein', 'apparent KD of MS2 coat protein', 41.9),
  ('UCGCUCUGGGUGAGAUCCGGAGAUGUGGAAGGAGCGCUGGUUCCAGCAGGUAGGUCGCCAACGGACAUGAGGAUCACCCAUGUAC [Same State - Arginine A (Freestyle 13)]', 'MS2 coat protein', 'apparent KD of MS2 coat protein', 63.1),
  ('GAUUAAACAUGAGGAUCACCCAUGUAUAUACGAGGACCGGUACGGCCGCCACUCGAAAACGAGUAUCCUCGAAUAAACAUGAUAA [AK 2 SS Trypt (A)]', 'MS2 coat protein', 'apparent KD of MS2 coat protein', 48.3),
  ('AAGGUGAUCCGUGAUACCAGCUCAACAUGAGGAUCACCCAUGUAACGGACGAAAGUCCGGAGCCCUUGGCAGCACGGUAAUAAUA [(M)''-(Theo1)-(Ms2)-(Theo2)-(M'''')_Design2b]', 'MS2 coat protein', 'apparent KD of MS2 coat protein', 15.1),
  ('GGAUAGGACACGGCCGCCACUAGCUAGGAUACUAGCAACAUUUCCUCAUCUGAGGAUCACCCAGGUAGGACCGGGUGUCCUAUCG', 'MS2 coat protein', 'apparent KD of MS2 coat protein', 683),
  ('CAUAUAUAUGGAAGGAGCGCGAUUACAUAACAUGAGGAUCACCCAUGUAAGAAAUUAUUCAUGCAGGUAGGUCGCCAUAUAUAUG [Same State Arginine B GF6]', 'MS2 coat protein', 'apparent KD of MS2 coat protein', 35.3),
  ('AGAUUCGACACGGCCGCCACUUGUGGUGGAUUAUCCUAUGUAAGACAUGAGGAUCACCCAUGUACAAGGACCGGGUGUUGAGUCU [XTryp B #22]', 'MS2 coat protein', 'apparent KD of MS2 coat protein', 336),
  ('GGCUGACAUGAGGAUCACCCAUGUAGUGAUACCAGUAAGAGAAUAUACCCUUGGCAGCACAGGUAACAACUCGUCUCCAAAGUAA [theeternabot_sameState_MS2_Theo_A_49]', 'MS2 coat protein', 'apparent KD of MS2 coat protein', 55.6),
  ('AGUAGACACGCGGCCGCCACUUGAGGAUCACCCAAGUGGUGUGUACUUGAAAACAAGUGCACAUCAAGGACCGGGCGUGUCUACA [Omei Tryp B SS D v3]', 'MS2 coat protein', 'apparent KD of MS2 coat protein', 8.01),
  ('CCUAUCCAGUCGGCCGCCACUGAAAACAGUGGGUGAACAUGAGGAUCACCCAUGUCGGAAUACCGCAGGACCGGGACUGUAUAGG [Ex Tryptophan B 23]', 'MS2 coat protein', 'apparent KD of MS2 coat protein', 393),
  ('AGCGAUAUGCAUGAUACCAGCUACAUGAGGAUCACCCAUGUGCGUCAGAAAUGACUGUGUAGCCCUUGGCAGCAUAGAGCAUGUA [Exclusion - Theophylline B (Freestyle 11)]', 'MS2 coat protein', 'apparent KD of MS2 coat protein', 46.2);

Just for reference, the supplement of paper PMC9170038 is where these values come from.
